Hey, just so you know, these numbers are from paper PMC5931518.

Recorded measurements of pKd, one per entry
- target-desc: T1, Lsm2-8 Lsm3-R21A (Saccharomyces cerevisiae, UniProt P38203;P57743;P40070;P40089;Q06406;P53905;P47093 …, R21A)
- T1 sequence 1: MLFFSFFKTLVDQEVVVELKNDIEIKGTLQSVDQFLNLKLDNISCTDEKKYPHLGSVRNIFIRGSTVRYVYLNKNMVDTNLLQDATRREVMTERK
- T1 sequence 2: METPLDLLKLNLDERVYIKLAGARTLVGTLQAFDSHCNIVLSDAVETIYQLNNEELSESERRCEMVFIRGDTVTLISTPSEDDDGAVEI
- T1 sequence 3: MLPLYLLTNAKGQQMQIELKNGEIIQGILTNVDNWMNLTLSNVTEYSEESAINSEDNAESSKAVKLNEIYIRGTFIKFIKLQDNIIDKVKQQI
- T1 sequence 4: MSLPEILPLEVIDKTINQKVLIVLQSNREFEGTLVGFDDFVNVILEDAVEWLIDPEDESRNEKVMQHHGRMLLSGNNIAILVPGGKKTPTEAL
- T1 sequence 5: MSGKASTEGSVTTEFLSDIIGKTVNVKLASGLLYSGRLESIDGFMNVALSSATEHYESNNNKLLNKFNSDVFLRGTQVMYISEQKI
- T1 sequence 6: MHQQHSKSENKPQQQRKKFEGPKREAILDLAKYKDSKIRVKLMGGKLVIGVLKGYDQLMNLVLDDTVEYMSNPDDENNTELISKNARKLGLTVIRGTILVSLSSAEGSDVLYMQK
- T1 sequence 7: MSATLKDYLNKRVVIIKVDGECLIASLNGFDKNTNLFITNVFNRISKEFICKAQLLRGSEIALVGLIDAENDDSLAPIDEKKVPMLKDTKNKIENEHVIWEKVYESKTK
- test: fluorescence polarization; FP: 50 mM KCl or as listed 100 mM KCl in both 2x buffers, HEPES (10 mM acid + 10 mM Na salt), 10% glycerol, 1 mM TCEP, tRNA, heparin, BSA, 0.3 nM FAM-RNA; EMSA: 100 mM KCl, 20% sucrose, 20 mM bis-tris/10 mM HCl pH ~6.5, 1 mM EDTA, 1 mM TCEP, 0.01% Triton X-100, tRNA, heparin, BSA, room temperature, gel at 4 C
- condition-set: protein: recombinant; tags: as P1; copies: 1;1;1;1;1;1;1; label: 5'-FAM; single strand
Reminder that pKd is minus the log10 of a molar concentration.

INSERT INTO measurements (binder, val) VALUES
  ('UUUCGUUUUU (ssRNA, none (3'' phosphate removed with CIP)) [U6 104-113 2'',3''-cis diol]', 7.39);

Here's the next entry for you.
Task: So what's the measured pKd for this one? UUUCGUUUUU (ssRNA, 3' phosphate) [U6 104-113 3' phosphate]
Result: 6.91
